pIC50: −log10 of the molar value.
Compiled notes: published pIC50 values involving Prostaglandin E2 receptor EP3 subtype (Homo sapiens, UniProt P43115).

COMPOUND	ASSAY ENDPOINT	MEASURED VALUE
Cc1cn(Cc2ccc(Cl)cc2Cl)c2c(-c3nnc(NC(=O)c4ccc(F)c(F)c4)o3)cc(F)cc12	pIC50	> 6.00
Cn1cc(C=CC(=O)NS(=O)(=O)c2c(F)c(F)c(F)c(F)c2F)c2c(Oc3ccc4ccccc4c3)cccc21	pIC50	> 6.00
CCOC(=O)C12CCCC(C=CC(=O)NS(=O)(=O)c3ccc(F)c(F)c3)=C1N(Cc1ccc(Cl)cc1Cl)C(=O)C2 (stereo not shown)	pIC50	> 6.00
Cn1cc(-c2csc(NS(=O)(=O)c3ccc(F)c(F)c3)n2)c2c(Oc3ccc4ccccc4c3)cccc21	pIC50	5.00 to 6.00

Check Prostaglandin E2 receptor EP3 subtype (Homo sapiens, UniProt P43115) data and give pIC50 for COc1cccc(CN2C(=O)CC3(C)CCCC(c4csc(NS(=O)(=O)c5ccc(F)c(F)c5)n4)=C23)c1 (stereo not shown) . > 6.00

Check Prostaglandin E2 receptor EP3 subtype (Homo sapiens, UniProt P43115) data and give pIC50 for Cc1cn(Cc2ccc(Cl)cc2Cl)c2c(C(=O)NS(=O)(=O)c3ccc(F)c(F)c3)cc(F)cc12 . > 6.00

Check Prostaglandin E2 receptor EP3 subtype (Homo sapiens, UniProt P43115) data and give pIC50 for O=C(O)/C=C/c1cccc2c1N(Cc1ccc(Cl)cc1Cl)C(=O)C2=O . 5.00 to 6.00
